CONDITION_DESCRIPTION: in isopropanol, 300.95 K

COMPOUND_STRUCTURE_STRING	solubility (mole fraction)
COC(=O)/C=C/C(=O)OC	0.00748

====

CONDITION_DESCRIPTION: in ethanol, 311.1 K

COMPOUND_STRUCTURE_STRING	solubility (mole fraction)
COC(=O)/C=C/C(=O)OC	0.0157

====

CONDITION_DESCRIPTION: in methanol, 322.28 K
METRIC_NAME: solubility (mole fraction)

COMPOUND_STRUCTURE_STRING	METRIC_NAME	NUMERIC_READOUT
COC(=O)/C=C/C(=O)OC	solubility (mole fraction)	0.0335
